- Tested on: SN12C
- protocol notes: NCI tumour cell line growth inhibition, 48 h
Calls of active or inactive are those of the source. Cut-off read from the data, not from the text of the source: active = GI50 up to about 1.1 µM and inactive = higher.
The compounds listed here are annotated with their GI50.
measured endpoint: GI50

>>> assay_value("Cc1cc(N(CCC#N)CCC#N)ccc1/C=C1N=C(/C=C/c2ccccc2)OC(=O)N\\1")
"> 100 µM (inactive)"
>>> assay_value("Cc1ccc(S(=O)(=O)NC(=O)Nc2cc(Cl)c(S(N)(=O)=O)cc2S(N)(=O)=O)cc1")
"> 100 µM (inactive)"
>>> assay_value("CCOc1ccc(NC2=NC(=O)C(CC(=O)Nc3ccccc3[N+](=O)[O-])S2)cc1 (configuration not stated)")
"> 100 µM (inactive)"
>>> assay_value("CCC(C)(O)c1cn(-c2cccc(S(=O)(=O)O)c2)nn1 (configuration not stated)")
"> 100 µM (inactive)"
>>> assay_value("C[C@]12CC[C@H]3[C@@H](CCC4=C[C@@H](N5CCCC5)CC[C@@]43C)[C@@H]1C/C(=C\\c1ccncc1)[C@@H]2O")
"14.1 µM (inactive)"
>>> assay_value("C/N=c1\\ss/c(=N\\C(=S)N(C)C)n1C")
"> 100 µM (inactive)"
>>> assay_value("CCN(CC)CCN(C(=O)c1ccc(F)cc1)c1ccccc1N")
"> 10 µM (inactive)"
>>> assay_value("COc1ccc(-c2nnc(-c3nsc4ccccc34)o2)cc1")
"59.4 µM (inactive)"
>>> assay_value("Cc1c2cc[n+](C)cc2c(C)c2c1[nH]c1ccc(O)cc12 [ELLIPTINIUM ACETATE]")
"0.532 µM (active)"
>>> assay_value("O=C1[C@@H]2C(c3ccccc3[N+](=O)[O-])=NO[C@@H]2C(=O)N1c1ccc(Cc2ccc(N3C(=O)[C@H]4C(c5ccccc5[N+](=O)[O-])=NO[C@H]4C3=O)cc2)cc1")
"> 100 µM (inactive)"
>>> assay_value("Cn1c2c([N+](=O)[O-])cccc2c(=O)c2c(O)cc3c(c21)C=CC(C)(C)O3")
"52 µM (inactive)"
>>> assay_value("Cc1nc2ccc(Cl)cc2c(Cl)c1CCCl")
"39.5 µM (inactive)"
>>> assay_value("C/C(=N/NC(=S)N(Cc1ccccn1)Cc1ccccn1)c1cnccn1")
"0.208 µM (active)"
>>> assay_value("O=C(Nc1cc(Cl)c(Cl)cc1Cl)C(=O)C1C=CCS1(=O)=O (configuration not stated)")
"93.5 µM (inactive)"
>>> assay_value("CC(=O)c1sc(=N)n(-c2c(C)cccc2C)c1C")
"> 100 µM (inactive)"
>>> assay_value("Cc1cccc2c1NC(=O)/C2=N\\Nc1ccccc1[N+](=O)[O-]")
"9.89 µM (inactive)"
>>> assay_value("CCCCCCCCCC(=O)CC(=O)c1ccc(O)cc1O")
"27.3 µM (inactive)"

###

- Tested on: DLD-1
- protocol notes: NCI tumour cell line growth inhibition, 48 h
Calls of active or inactive are those of the source. Rule as the data show it: active = GI50 up to about 1.1 µM and inactive = higher.
measured endpoint: GI50

>>> assay_value("CO[C@@]12CC(=O)/C(=C(O)\\C=C\\c3ccccc3)C(=O)[C@]1(OC)Cc1ccccc1O2")
"32.2 µM (inactive)"
>>> assay_value("CCC(C)(O)c1cn(-c2cccc(S(=O)(=O)O)c2)nn1 (stereo not drawn)")
"> 100 µM (inactive)"
>>> assay_value("COC(=O)C1CCc2c1c(=O)n1c([nH]c3ccccc31)c2C#N (stereo not drawn)")
"> 100 µM (inactive)"

###

- System: SW-620
- protocol notes: NCI tumour cell line growth inhibition, 48 h
Calls of active or inactive are those of the source. Rule as the data show it: active = GI50 up to about 1.1 µM and inactive = higher.
Outcome codes: True (active), False (inactive)

>>> category_label("N/N=C(\\Nc1ccccc1)SCc1ccccc1")
"False"
>>> category_label("C[C@]12C=CC(=O)C=C1CC[C@@H]1[C@@H]2C(=O)C[C@@]2(C)[C@H]1CC[C@]2(O)C(=O)CO")
"False"
>>> category_label("CC[C@H](C)C1=C(O)[N@+]2([O-])Oc3ccc(-c4c(O)c(O)c(-c5ccc(O)cc5)c(OC(C)=O)c4OC(C)=O)cc3O[C@]2([C@@H](C)CC)C(=O)N1O")
"False"
>>> category_label("Nc1ncnc2c1ncn2C=C=CCO")
"False"
>>> category_label("CC(C)(C)OC(=O)[C@@H]1ON2O[C@H](OC3CCCC3(c3ccccc3)c3ccccc3)C[C@H]3OC(=O)[C@@H]1[C@H]32 (some centres undefined)")
"False"
>>> category_label("COc1cc(C2S/C(=C/c3ccccc3)C(=O)N2c2ccc(Cl)cc2)cc(OC)c1OC (centres undefined)")
"False"
>>> category_label("CN(C)[C@@H]1C(O)=C(C(=O)NCNCCCC(=O)O)C(=O)[C@@]2(O)C(O)=C3C(=O)c4c(O)cccc4[C@@](C)(O)[C@H]3C[C@@H]12")
"False"
>>> category_label("COc1c2c(c(O)c3c4c(c(C)cc13)C1OC3(C(OC)OC5CC(C)(O)C(OC6CC(C)(O)C(O)C(C)O6)C(C)O5)OC1C(OC)(O4)C31CO1)C(=O)C(O)CC2OC1CC(C)(O)C(OC(C)=O)C(C)O1 (centres undefined)")
"True"
>>> category_label("CCCCC(NC(=O)CC)C(=O)O (centres undefined)")
"False"

###

- Test system: K562
- protocol notes: NCI tumour cell line growth inhibition, 48 h
Active and inactive are the calls of the source. Rule as the data show it: active = GI50 up to about 1.1 µM and inactive = higher. Where a SMILES comes first, the peptide text is derived from it. [ ]: non-standard residue; d: D form. The star is where a group is joined. ξ: configuration not given here. NMeF = CN[C@@H](Cc1ccccc1)C(=O)O; NMeV = CN[C@H](C(=O)O)C(C)C; ξNMeN = CNC(CC(N)=O)C(=O)O; NMeA = CN[C@@H](C)C(=O)O; ξNMeV = CNC(C(=O)O)C(C)C; Boc = CC(C)(C)OC(=O)*
The compounds listed here are annotated with their GI50.
measured endpoint: GI50

>>> assay_value("COC(=O)[C@H](C)N(C)C(=O)C(CC(N)=O)N(C)C(=O)[C@H](Cc1ccccc1)N(C)C(=O)[C@@H]1CCCN1C(=O)[C@H](C(C)C)N(C)C(=O)C(C(C)C)N(C)C(=O)[C@@H](NC(=O)OC(C)(C)C)C(C)C (stereo partly specified) (Boc-V[ξNMeV][NMeV]P[NMeF][ξNMeN][NMeA]-OMe)")
"> 50 µM (inactive)"
>>> assay_value("CC12CCC(CC(=O)/C1=C(/Br)I)C2(C)C (stereo unspecified)")
"11.2 µM (inactive)"
>>> assay_value("O=C1/C(=C/c2ccc(O)c(O)c2)CCC/C1=C\\c1ccc(O)c(O)c1")
"3.71 µM (inactive)"
>>> assay_value("CC(=O)O[C@H]1CC[C@@]2(C)C(=C/C(=N\\[N+](=O)[O-])[C@H]3C4CCC([C@H](C)CCCC(C)C)[C@@]4(C)CCC32)C1 (stereo partly specified)")
"> 100 µM (inactive)"
>>> assay_value("COc1cccc(C2c3cc4c(cc3OC(N3CCCC3)C2C)OCO4)c1OC (stereo unspecified)")
"3.17 µM (inactive)"
>>> assay_value("CC1(C)CC(=O)C2=C(C1)C(c1ccccc1Cl)C1C(=O)CC(C)(C)CC1(O)O2 (stereo unspecified)")
"15.3 µM (inactive)"

###

- Test system: NCI-H226
- protocol notes: NCI tumour cell line growth inhibition, 48 h
Activity calls are given as the source filed them. Rule as the data show it: active = GI50 up to about 1.1 µM and inactive = higher.
Outcome codes: 1.0 (active), 0.0 (inactive)

>>> category_label("Cn1c(=O)c2[nH]c(CCC(=O)O)nc2n(C)c1=O")
0.0
>>> category_label("CC(C)(C)OC(=O)NCC(c1c[nH]c2cc(Br)ccc12)c1c[nH]c2cc(Br)ccc12")
0.0
>>> category_label("N/N=C(\\Nc1ccccc1)SCc1ccccc1")
0.0
>>> category_label("CN1CCN(Cc2nc3c(s2)CCc2sccc2-3)CC1")
0.0
>>> category_label("O=C(O)C(=Cc1ccc(-c2ccc([N+](=O)[O-])cc2)o1)C(=O)O")
0.0
>>> category_label("COc1ccccc1Cn1c2c(c3c(C(=O)NCCN(C)C)c(O)ccc31)C(=O)c1ccccc1C2=O")
0.0
>>> category_label("O=[As](O)(O)c1cc(/N=N/c2ccc(-c3ccc(/N=N/c4cc([As](=O)(O)O)c(O)cc4O)cc3)cc2)c(O)cc1O")
0.0
>>> category_label("CC(=O)NC(C)(C)C1CCC(C)CC1 (stereo not given)")
0.0
>>> category_label("CCCCC(=O)c1c(O)ccc2c(C)cc(=O)oc12")
0.0
>>> category_label("C[C@H]1C/C=C/[C@H]2[C@@H]3O[C@]3(C)[C@@H](C)[C@H]3[C@H](Cc4ccccc4)NC(=O)[C@]32OC(=O)O/C=C/[C@@](C)(O)C1=O [CYTOCHALASIN E]")
1.0
